log kw,IAM values for the compounds below.
procedure.details: Immobilized artificial membrane (IAM.PC.DD2) chromatography: log kw,IAM
Format: physicochemical
reported.conditions: IAM.PC.DD2 column, buffered acetonitrile 0.2-0.5, 25 °C

- query.smiles: "CCOC(=O)c1nnc2n(c1=O)CCN2c1cccc(Cl)c1"
  log kw,IAM: 1.73
- query.smiles: "CCOC(=O)c1nnc2n(c1=O)CCN2c1ccc(Cl)c(Cl)c1"
  log kw,IAM: 3.36
- query.smiles: "CCOC(=O)c1nnc2n(c1=O)CCN2c1ccccc1"
  log kw,IAM: 0.48
- query.smiles: "CCOC(=O)c1nnc2n(c1=O)CCN2c1ccc(C)cc1"
  log kw,IAM: 1.93
- query.smiles: "CCOC(=O)c1nnc2n(c1=O)CCN2c1ccc(Cl)cc1"
  log kw,IAM: 1.12
